tested on: Giardia lamblia GS isolate; experiment: Trophozoite enumeration assay; format: cell-based; details: Giardia duodenalis; G. lamblia GS isolate; 48 hrs, cell counting in hemocytometer
Measurement name: pIC50
One number for each entry, as −log10 of the molar value.

COC(=O)N/N=C/c1c[n+]([O-])c2ccccc2[n+]1[O-] [Carbadox]    6.54
CC(C)C[C@H](NC(=O)[C@H](Cc1ccccc1)NC(=O)c1cnccn1)B(O)O [Bortezomib]    6.89
Nc1ncn([C@H]2C[C@H](O)[C@@H](CO)O2)c(=O)n1 [Decitabine, 5-Aza-2′-deoxycytidine]    7.15
O=C(Nc1ccccc1)c1cc([N+](=O)[O-])ccc1Cl [GW9662]    4.48
Cc1ncc([N+](=O)[O-])n1CCO [Metronidazole]    5.66

Next item in the queue.
What measured pIC50 goes with CO[C@@H]1[C@H](OC(=O)/C=C/C=C/C=C/C=C/C(=O)O)CC[C@]2(CO2)[C@H]1[C@@]1(C)O[C@@H]1CC=C(C)C [Fumagillin] ? 8.52
